Test system: S. cerevisiae NKY1551 his4x/his4B, sporulating;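 note: active if sensitivity score above 5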
Assay: HIS4 meiotic recombination assay sensitivity score (z-score vs DMSO controls); higher = stronger inhibition of sporulation/recombination, active = hit call of the paper
Where a name gives a salt, the structure may show the parent alone.
OUTCOME MEASURE: HIS4 meiotic recombination assay sensitivity score

* COc1cc2nc(N3CCN(C(=O)C4CCCO4)CC3)nc(N)c2cc1OC (stereo unspecified) [Terazosin] (stock concentration (mM, diluted 1:100): 9.5) | 0.92
* Cc1c(O)c(=O)ccn1C [Deferiprone] (stock concentration (mM, diluted 1:100): 10) | -0.12
* Nc1c2c(nc3ccccc13)CCCC2 [Tacrine hydrochloride] (stock concentration (mM, diluted 1:100): 9) | -2.37
* CCc1ccc(CCOc2ccc(CC3SC(=O)NC3=O)cc2)nc1 (stereo unspecified) [Pioglitazone hydrochloride] (stock concentration (mM, diluted 1:100): 9.1) | 0.36
* C[N+]1(C)CCC(OC(=O)C(O)(c2ccccc2)C2CCCC2)C1 (stereo unspecified) [Glycopyrrolate] (stock concentration (mM, diluted 1:100): 10) | -0.65
* CCCCCCCCCCC[C@@H](C[C@@H]1OC(=O)[C@H]1CCCCCC)OC(=O)[C@H](CC(C)C)NC=O [Orlistat] (stock concentration (mM, diluted 1:100): 10) | -1.52
